result_type: CO2 permeability (Barrer)

Worked cases, answers included:
INSERT INTO assay_data (molecule, readout_value) VALUES
  ('*c1ccc(Oc2cccc(-n3c(=O)c4cc5c(=O)n(*)c(=O)c5cc4c3=O)c2)cc1 (repeat unit)', 1.15),
  ('*C(C)=C(*)CCC(C)C (repeat unit)', 390),
  ('*=CC1CC(C=*)C2C(=O)N(C34CC5CC(CC(C5)C3)C4)C(=O)C12 (repeat unit)', 8.39),
  ('*Oc1ccc(S(=O)(=O)c2ccc(Oc3c(C)cc(C(C)(C)c4cc(C)c(*)c(C)c4)cc3C)cc2C(O)(C(F)(F)F)C(F)(F)F)c(C(O)(C(F)(F)F)C(F)(F)F)c1 (repeat unit)', 30),
  ('*Oc1ccc(S(=O)(=O)c2ccc(Oc3ccc(C(C)(C)c4ccc(*)cc4)cc3)cc2)cc1 (repeat unit)', 5.6),
  ('*c1ccc(C2(c3ccc(N4C(=O)c5ccc(C(c6ccc7c(c6)C(=O)N(*)C7=O)(C(F)(F)F)C(F)(F)F)cc5C4=O)cc3)c3cc(C(C)(C)C)ccc3-c3ccc(C(C)(C)C)cc32)cc1 (repeat unit)', 271);

1. *c1cccc(C(c2cccc(N3C(=O)c4ccc(C(c5ccc6c(c5)C(=O)N(*)C6=O)(C(F)(F)F)C(F)(F)F)cc4C3=O)c2)(C(F)(F)F)C(F)(F)F)c1 (repeat unit)
2. *c1ccc2c(c1C)N1Cc3ccc(N4C(=O)c5ccc(C(c6ccc7c(c6)C(=O)N(*)C7=O)(C(F)(F)F)C(F)(F)F)cc5C4=O)c(C)c3N(C2)C1 (repeat unit)
3. *Oc1ccc(Cc2ccc(Oc3c(F)c(F)c(COC(C4CCCC(C(OCc5c(F)c(F)c(*)c(F)c5F)(C(F)(F)F)C(F)(F)F)C4)(C(F)(F)F)C(F)(F)F)c(F)c3F)cc2)cc1 (repeat unit)
4. *OC(=O)c1cccc(C(=O)Oc2c(C)cc(C(C)(C)c3cc(C)c(O*)c(C)c3)cc2C)c1 (repeat unit)
5. *Nc1ccc(Oc2ccc(Oc3ccc(NC(=O)CN4C(=O)c5ccc(C(*)=O)cc5C4=O)cc3)cc2)cc1 (repeat unit)
Would you mind ranking these molecules by ascending CO2 permeability? When ranking, write the labels in the order the request describes. 5, 1, 3, 4, 2
(5: 0.749 Barrer, 1: 5.1 Barrer, 3: 7.6 Barrer, 4: 24 Barrer, 2: 190 Barrer)

A. *c1ccc(Oc2ccc(C3(c4ccc(Oc5ccc(N6C(=O)c7ccc(C(c8ccc9c(c8)C(=O)N(*)C9=O)(C(F)(F)F)C(F)(F)F)cc7C6=O)cc5)cc4)OC(=O)c4ccccc43)cc2)cc1 (repeat unit)
B. *=CC1CC(C=*)C2C1C([Si](O[Si](C)(C)C)(O[Si](C)(C)C)O[Si](C)(C)C)C2[Si](O[Si](C)(C)C)(O[Si](C)(C)C)O[Si](C)(C)C (repeat unit)
C. *Oc1ccc(-c2ccc(Oc3c(F)c(F)c(COC(C4CCCC(C(OCc5c(F)c(F)c(*)c(F)c5F)(C(F)(F)F)C(F)(F)F)C4)(C(F)(F)F)C(F)(F)F)c(F)c3F)cc2)cc1 (repeat unit)
D. *Oc1cc2c(cc1O*)C1(c3ccccc3-c3cc4c(cc31)Oc1c(C#N)c(*)c(*)c(C#N)c1O4)c1cc(C)c(C)cc1-2 (repeat unit)
Sort low-to-high on CO2 permeability, please. Order the labels as requested and list them. C, A, B, D
(C: 8.2 Barrer, A: 16.5 Barrer, B: 1160 Barrer, D: 7880 Barrer)
